Below: compounds with IC50 recorded for BRD3 (Homo sapiens (Human)) in separate published works.
I only need the number, in µM, no unit after it.

Compound: COc1ncc(-c2nc3c(n2C)C(c2ccc(Cl)cc2)N(c2cc(OC)c4nnc(C)n4c2)C3=O)c(OC)n1 (stereo not shown)
Measured on: BRD3 (Homo sapiens (Human))
Units text: µM
Numeric readout: 0.098

Query :: Returns the measured IC50 for the input compound. Input: COc1ccc(C2c3c(ccn3C)C(=O)N2c2cc(C)c(=O)n(C)c2)cc1 (stereo not shown)
Result :: 0.161

Query :: How about this compound: CC(C)n1c(-c2ccn(C)n2)nc2c1C(c1ccc(Cl)cc1)N(c1ccc(=O)n(C)c1)C2=O (stereo not shown)
Result :: 0.603

Query :: How about this compound: COc1ncc(-c2nc3c([nH]2)C(c2ccc(Cl)cc2)N(c2cc(OC)c4nnc(C)n4c2)C3=O)c(OC)n1 (stereo not shown)
Result :: 0.48

Query :: How about this compound: COc1ncc(-c2nc3c([nH]2)[C@@H](c2ccc(Cl)cc2)N(c2cc(OC)c4nnc(C)n4c2)C3=O)c(OC)n1
Result :: 0.136

Query :: How about this compound: COc1cc(N2C(=O)c3nc(C4CCN(C)CC4)n(C(C)C)c3C2c2ccc(Cl)cc2)cc2c1nnn2C (stereo not shown)
Result :: 0.0355

Query :: How about this compound: CCn1nc2c(c1C)C(c1ccc(F)cc1F)N(c1cc(C)c3nnc(C)n3c1)C2=O (stereo not shown)
Result :: 0.051
